- EXPERIMENTAL DETAILS: soluble on expression in E. coli; label from the status in PepcDB or PDB records
ASSAY READOUT: soluble on expression in E. coli

• MGSDKIHHHHHHMIKLFIVACGYIIYKLGRYCKENEYYMASLLMLQYHKSLSAERQQILYTNFTYYKKLSEKKKLEFEKRVQHFLTNKSFIASDGFEITEQMKVMIAATAVQILFCRKAYYLSSFDFIELFEEVPVHVEVMRKKRIIQISWNEFKKGFDSLIDGYNPGLKIMAMALDLEHKFGEKSLFSQQTYKAFQKIYKQEAEKYILSGKSKYDHYNKVDRTEYFAVAVEYFFERPEHFNVNQPAMYLALSKLLRQDPLGMYTYKEKVFE = not soluble
• MQADFNRPVLAVDTGTSYLSLALRADGETCLFHQEVGSRQSALILPEIRTLFHDAGITAADLGAIVYAKGPGAFTGLRIGIGVAQGLATPFDTPLIGVPSLDAAASLPPPQSCILAAADARMGEVFYAWFDTLNRRRLSDYQVGRAADIRLPEGCAFSDGIGNAFALENRPPFSGKPDMPTAADFLNLAAEGGFPAVAAAHAELLYVRNKIALTAKEQAERRARLLEHHHHHH = not soluble
• MGTICDAASPTFMLQHWVRDRRRGSRISLEHAIKRQCHDTARLYGLDDRGVIAPGYLADINVIDFDRVRLLKPWLAFDLPAGGKRLLQKAEGYDYTIKGGKVTFRNGEWTGATPGNLIRGPQRADLMEAAELEHHHHHH = not soluble
• MAGDPMQQSDVISAAKKYMESIHQNDYTGHDIAHVYRVTALAKSIAENEGVNDTLVIELACLLHDTVDEKVVDANKQYVELKSFLSSLSLSTEDQEHILFIINNMSYRNGKNDHVTLSLEGQIVRDADRLDAIGAIGVARTFQFAGHFGEPMWTEHMSLDKINDDLVEQLPPSAIKHFFEKLLKLESLMHTDTAKMIAKERHDFMMMYLKQFFTEWNYHDLEHHHHHH = soluble
• SEEASTGTMVLLWAGGFQKVGGEQVSPLTGEVTRHRDRNIPYNLPVPSHPSNWVPLAAEVGPDSCDCGGPAPGLLLLLTRPHDPQFTVPSGWGRQLCPGHALLDEPLLPETGGHPVCERVGHPAPSGPPDLLGLAAGHVLCRVRHDTPVRIPGTGSGCVCTHPAVQWQADLLPHLTLWPNPGQGTVRTSVRNSGHTEEQQVGLS = soluble
• MGCTLSAEDKAAVERSKMIDRNLREDGERSRRELKLLLLGTGESGKSTFIKQMRIIHGSGYSDEDKRGFTKLVYQNIFTAMQAMIRAMDTLKIPYKYEHNKAHAQLVREVDVEKVSAFENPYVDAIKSLWNDPGIQECYDRRREYQLSDSTKYYLNDLDRVADPSYLPTQQDVLRVRVPTTGIIEYPFDLQSVIFRMVDVGGQRSERRKWIHCFENVTSIMFLVALSEYDQVLVESDNENRMEESKALFRTIITYPWFQNSSVILFLNKKDLLEEKIMYSHLVDYFPEYDGPQRDAQAAREFILKMFVDLNPDSDKIIYSHFTCATDTENIRFVFAAVKDTILQLNLKEYNLV = soluble

----------
- EXPERIMENTAL DETAILS: soluble on expression in E. coli; label from the status in PepcDB or PDB records
ASSAY READOUT: soluble on expression in E. coli

* GAMAGSIRSKLSAIDVRQLGTVDYRTAWQLQRELADARVAGGADTLLLLEHPAVYTAGRRTETHERPIDGTPVVDTDRGGKITWHGPGQLVGYPIIGLAEPLDVVNYVRRLEESLIQVCADLGLHAGRVDGRSGVWLPGRPARKVAAIGVRVSRATTLHGFALNCDCDLAAFTAIVPCGISDAAVTSLSAELGRTVTVDEVRATVAAAVCAALDGVLPVGDRVPSHAVPSPL | soluble
* SMQVERESISRLMQNYEKINVNEITRFSDFPLSKKTLKGLQEAQYRLVTEIQKQTIGLALQGKDVLGAAKTGSGKTLAFLVPVLEALYRLQWTSTDGLGVLIISPTRELAYQTFEVLRKVGKNHDFSAGLIIGGKDLKHEAERINNINILVCTPGRLLQHMDETVSFHATDLQMLVLDEADRILDMGFADTMNAVIENLPKKRQTLLFSATQTKSVKDLARLSLKNPEYVWVHEKA | soluble
* MAHHHHHHMGFSLLHPLPSAIHAGSNSSRLAVQRNPCRRSTEWCHGGSSGKQKKQRHCRGSEAGRPSGLPPNPRAPPPHHHRSAEGPRRPARHRRRHRRCTEDRPSSKPPAAHPRCRWARSPRRLSEHLGRLPLLGRRILLGCSQVDILRWGAAAGINALRNGDGCPLAILVQ | not soluble
* MGSDKIHHHHHHMIKAIALLRRKQGLSREQFIAYYETRHAPLIRSLLPGIEDYRRNYVDRTGAFESGIAAIDFDSVTEMRFASRASYDAFLAQAADPEIARLIADDEENVFDRSATRMFVVDETPAALSPDTPSPVLIDELLAERAIRDGLARFARVLDAKAWDALGDVFAADLTFDYGLGEQVGLEALTVNMRRFLDVCGPSQHLIGSIMITVDPGLQSATSRAYVRARHQRAGNSGGPVFDSNGEYVDRWECRAEGWRIVRRDALWQTQSGEAAIIWDGSPAAG | not soluble
* GSKKHSVLHLVPVNITSKADSDVTEVMWQPVLRRGRGLEAQGDIVRVWDTGIYLLYSQVLFHDVTFTMGQVVSREGQGRRETLFRCIRSMPSDPDRAYNSCYSAGVFHLHQGDIITVKIPRANAKLSLSPHGTFLGFVKL | soluble
* MAKGIMLHEVGEQVDQYLLIKSSTKGIASNGKPFLTLMLQDQSGDIEAKLWDAKQSDEVTYAPQTIVKVVGDVHHYRGRTQLKLRNIRPVSEQENVNIDDFLETAPIPKNEMMDTITQYIFEMKNPNIQRITRFLVKKHEAEFMDYPAATKNHHEFVSGLAYHVVSMLNLAKAIADLYPSLDRDLLYAGVILHDLGKVKELSGPVSTSYTVEGNLLGHISIMVTELSKAAEELQIDSEEVLILQHLILSHHGKAEWGSPKPPMVKEAEILHYIDNLDAKMNMMDRALERVKPGEYTERVFALENRSFYKPTFHK | not soluble

----------
- EXPERIMENTAL DETAILS: soluble on expression in E. coli; label from the status in PepcDB or PDB records
ASSAY READOUT: soluble on expression in E. coli

• MEKPVMCKIIDVLDESPTVKTFLLDKEFDFKPGQFAMVWIPEIDEKPFGFSSKNSISIAKVGRFTEKIHSLKKGDLLGIRGPYGNNFEYMGSKILAVAGGIGSAPIISAVEKFSKMDVEVTSIIGGRTKDELLFLDRFEKCGRTFACTDDCSYGFGGFTTEKMLELLSKEKFDMIISCGPEIMMKKVVEIAEKHAIPIQVSLERYMKCGIGICGHCAVDDEGLCICKDGPVFWNDKLKFVSEFGKYKRDASGAIL = not soluble
• MGSDKIHHHHHHMVIFTQVVECGSFSGAAIATGHSNSYISKTLNKLEARVGVRLLNRTTRSISLTPEGQVYYEQCQQLVLDAHDAVSLLTQSHIEPKGVLKISCPTSFAENHLQEVMSAFMHQYPEVNLVLDLNDRHVDLVQDGFDLVIRATDKLAESSLVCRKIYSCKAYTVASHDYLKRFGLPQSPEQLSEHQCICYSNLKQANKWIYSHSNGTDNQVEVKAKLLCNSASMELAMVLAGHGICRLPAFVMEKELQDNKLAILFNDYITPTIDVYAIYPSRKHLSPKVRCFIDLLVDKMPRSLL = not soluble
• MGSDKIHHHHHHMSRPAITAIPVFKLYGETTAWPTPDLIHCESIPERSRMHDWEIKPHRHGDLVQLLYVQSGKAMLKVEDRVRKVETASLQVVPALSVHTFRFAEDIQGHILSLAKPLVEQLETTLDSSAMRTARCYELGADSHYVDTLFSAIAREYRQPRAGRDLMLHSLINVLVVWLSRRNSEEAGEQVQTMDRGREHLQVFMHQLETCFREHWSIEQHAQAMGISAAHLNALCRRLCDQSALQIISQRLLLEAKRNLIYTTLTINQVSDSLGFSEPAYFSRFFKRATGQSPREFRQQK = not soluble

----------
- EXPERIMENTAL DETAILS: soluble on expression in E. coli; label from the status in PepcDB or PDB records
ASSAY READOUT: soluble on expression in E. coli

* MGSDKIHHHHHHFEERSGVVPCGTPWGQWYQTLEEVFIEVQVPPGTRAQDIQCGLQSRHVALAVGGREILKGKLFDSTIADEGTWTLEDRKMVRIVLTKTKRDAANCWTSLLESEYAADPWVQDQMQRKLTLERFQKENPGFDFSGAEISGNYTKGGPDFSNLEKDGT | not soluble
* MAHHHHHHMSEGGRRRKVYGFKAERQAFFSKHVRQTFLEEGRKKKDEERARMEAYRKLCEEEGIVSKRLEDYDRTRKAAKEHLSSTLEQIDYDQSLTNNEKKKRKYNLKRKFAATTVNDLIDKQQKHYSAVSGMEEVQRRQQQEREEKQKARQEREREKQSRVQARKSRNALFAKRTKKGQPAMSSRVESLLQKISWQ | not soluble
* MKLQQLKYALEVYQHNLNVSEAAEALFTSQPGISKQIKLLEEEIGIQIFIRSGKRVVSVSQPGKVVLDIAERILRDVQNIKNIGSEFTGQDSGSLTVATTHTQARYALPLIVADFVKRYPKVNLTIKQGSPAAIARMVTSGEADLAIVTERIDDHPELGKLPCYDWTHAVIVPNDHPLLECRNPLRIEDLARFPLITYEFAFNAGSSIARAFSKARLEQPDVALAAADTDVLKTYVRLGLGVGLMAKMAYNPDTDGDLQLVDAAHLFEPSPTWIALRSDTYLRGYAYDFIQAFAPHLTREKVDRILYTPISEDFSI | soluble
* MYGKLLICATASINVININHYIVELKQHFDEVNILFSPSSKNFINTDVLKLFCDNLYDEIKDPLLNHINIVENHEYILVLPASANTINKIANGICDNLLTTVCLTGYQKLFIFPNMNIRMWGNPFLQKNIDLLKNNDVKVYSPDMNKSFEISSGRYKNNITMPNIENVLNFVLNNEKRPLD | soluble
